# target_or_system: T1, hGP130-his (Sino Biological, Catalog# 10974) (human, UniProt P40189 23-619)
# T1 construct: Bought reagent; also called extracellular domain of gp130; not shown: C-terminal poly-His tag
# T1 sequence: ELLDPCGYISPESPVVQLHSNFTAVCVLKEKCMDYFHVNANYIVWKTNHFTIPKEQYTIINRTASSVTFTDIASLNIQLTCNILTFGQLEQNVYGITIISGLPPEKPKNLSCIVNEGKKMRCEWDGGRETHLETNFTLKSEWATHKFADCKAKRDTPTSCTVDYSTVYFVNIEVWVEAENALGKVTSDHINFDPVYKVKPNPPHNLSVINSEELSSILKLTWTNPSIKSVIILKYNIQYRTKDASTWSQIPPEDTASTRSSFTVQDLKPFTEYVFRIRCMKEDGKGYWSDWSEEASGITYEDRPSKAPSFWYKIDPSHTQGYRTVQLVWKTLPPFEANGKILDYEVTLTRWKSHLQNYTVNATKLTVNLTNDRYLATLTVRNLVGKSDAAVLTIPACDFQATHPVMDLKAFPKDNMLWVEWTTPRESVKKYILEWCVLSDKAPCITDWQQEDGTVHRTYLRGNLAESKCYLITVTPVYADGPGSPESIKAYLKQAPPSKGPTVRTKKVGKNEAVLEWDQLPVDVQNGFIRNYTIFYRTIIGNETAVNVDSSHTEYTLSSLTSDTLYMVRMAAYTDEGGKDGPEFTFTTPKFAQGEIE
# experiment_notes: SPR (Biacore T200), Mono-Fc VHH captured on Protein A chip, hGP130-his in solution, 1:1 fit
// boundary case: koff equal to 0.008 s⁻¹ maps to no (0); strictly smaller maps to yes (1)

koff under 0.008 s⁻¹? Item: DR595 Mono-Fc VHH (Fc fusion, Mono-Fc format is not described further; also called anti-hGP130 Mono-Fc VHH; not shown: Fc part of the Mono-Fc format) QVQLQESGGGSVQAGGSLTLSCAASEYAYSTCNMGWYRQAPGKERELVSAFISDGSTYYADSVKGRFTITRDNAKNTVYLQMNSLKPEDTAIYYCSANCYRRLRNYWGQGTQVTVSS
yes (1)

koff under 0.008 s⁻¹? Item: DR592 Mono-Fc VHH (Fc fusion, Mono-Fc format is not described further; also called anti-hGP130 Mono-Fc VHH; not shown: Fc part of the Mono-Fc format) QVQLQESGGGSVQAGGSLRLSCTAPGFTSNSCGMDWYRQAPGKEREFVSSISTDGTTGYADSVKGRFTISKDKAKDTVYLQMNSLKPEDTGMYSCKTKDGTIATMELCDFGYWGQGTQVTVSS
yes (1)

koff under 0.008 s⁻¹? Item: DR591 Mono-Fc VHH (Fc fusion, Mono-Fc format is not described further; also called anti-hGP130 Mono-Fc VHH; not shown: Fc part of the Mono-Fc format) QVQLQESGGGSVQAGGSLRLSCTASGAIASGYIDSRWCMAWFRQAPGKEREGVAAIWPGGGLTVYADSVKGRFTISRDHAKNTLYLQMNNLKPEDTAMYYCAAGSPRMCPSLEFGFDYWGQGTQVTVSS
yes (1)

koff under 0.008 s⁻¹? Item: DR593 Mono-Fc VHH (Fc fusion, Mono-Fc format is not described further; also called anti-hGP130 Mono-Fc VHH; not shown: Fc part of the Mono-Fc format) QVQLQESGGGSVQAGGSLRLSCAASGYPYSNGYMGWFRQAPGKEREGVATIYTGDGRTYYADSVKGRFTISRDNAKNTVDLQMSSLKPEDTAMYYCAARAAPLYSSGSPLTRARYNVWGQGTQVTVSS
no (0)

koff under 0.008 s⁻¹? Item: DR594 Mono-Fc VHH (Fc fusion, Mono-Fc format is not described further; also called anti-hGP130 Mono-Fc VHH; not shown: Fc part of the Mono-Fc format) QVQLQESGGGSVQAGGSLRLSCVASASTYCTYDMHWYRQAPGKGREFVSAIDSDGTTRYADSVKGRFTISQGTAKNTVYLQMNSLQPEDTAMYYCKTVCVVGSRWSDYWGQGTQVTVSS
no (0)
